TEST_DESCRIPTION: in vitro
CONDITIONS_USED: ICR (CD-1), mouse, microsomes, pH 7.4
REPORTED_METRIC: half-life at 1 μM (min)

MOLECULE	REPORTED_METRIC	UNIT_OF_MEASUREMENT	REPORTED_VALUE
C=C(F)C(=O)N1CCN(c2nc(OC[C@@H]3CCCN3C)nc3c2CCN(c2cccc4cccc(Cl)c24)C3)C[C@@H]1CC#N [MRTX849, reference compound]	half-life at 1 μM	min	10
[2H]C([2H])([2H])c1cccc2cccc(N3CCc4c(nc(OC[C@@H]5CCCN5C)nc4N4CCN(C(=O)C=C)[C@@H](CC#N)C4)C3)c12 [Compound 1]	half-life at 1 μM	min	20.9
[2H]C([2H])([2H])N1CCC[C@H]1COc1nc2c(c(N3CCN(C(=O)C=C)[C@@H](CC#N)C3)n1)CCN(c1cccc3cccc(C)c13)C2 [Compound 42]	half-life at 1 μM	min	22.8
[2H]C([2H])([2H])N1CCC[C@H]1COc1nc2c(c(N3CCN(C(=O)C=C)[C@@H](CC#N)C3)n1)CCN(c1cccc3cccc(Cl)c13)C2 [Compound 41]	half-life at 1 μM	min	14.6
[2H]C([2H])([2H])N1CCC[C@H]1COc1nc2c(c(N3CCN(C(=O)C(=C)F)[C@@H](CC#N)C3)n1)CCN(c1cccc3cccc(Cl)c13)C2 [Compound 18]	half-life at 1 μM	min	12.3

---

Tumor inhibition rate TGI (%) for assorted molecules
Test system: NCI-H358 tumor (K-RAS G12C mutation)
Format: in vivo, BALB/c nude mice
CONDITIONS_USED: Day 21, 15 mg/kg PO QD
REPORTED_METRIC: Tumor inhibition rate TGI (%)

SMILES_ENTRY	REPORTED_VALUE
[2H]C([2H])([2H])N1CCC[C@H]1COc1nc2c(c(N3CCN(C(=O)C=C)[C@@H](CC#N)C3)n1)CCN(c1cccc3cccc(Cl)c13)C2	97.0
[2H]C([2H])([2H])N1CCC[C@H]1COc1nc2c(c(N3CCN(C(=O)C=C)[C@@H](CC#N)C3)n1)CCN(c1cccc3cccc(C)c13)C2	99.8
[2H]C([2H])([2H])c1cccc2cccc(N3CCc4c(nc(OC[C@@H]5CCCN5C([2H])([2H])[2H])nc4N4CCN(C(=O)C=C)[C@@H](CC#N)C4)C3)c12	110.7
[2H]C([2H])([2H])c1cccc2cccc(N3CCc4c(nc(OC[C@@H]5CCCN5C)nc4N4CCN(C(=O)C=C)[C@@H](CC#N)C4)C3)c12	99.5

---

TEST_DESCRIPTION: in vitro
CONDITIONS_USED: human, Caco-2, pH 7.4
Collected Papp A→B at 2 h, 10 μM values appear next to each entry.

MOLECULE	UNIT_OF_MEASUREMENT	Papp A→B at 2 h, 10 μM
COCCc1ccc(OCC(O)CNC(C)C)cc1 (stereo not shown) [Metoprolol]	×10⁻⁶ cm/s	22.6
C=CC(=O)N1CCN(c2nc(=O)n(-c3c(C)ccnc3C(C)C)c3nc(-c4c(O)cccc4F)c(F)cc23)[C@@H](C)C1 [AMG510]	×10⁻⁶ cm/s	0.6
[2H]C([2H])([2H])c1cccc2cccc(N3CCc4c(nc(OC[C@@H]5CCCN5C)nc4N4CCN(C(=O)C=C)[C@@H](CC#N)C4)C3)c12 [Compound 1]	×10⁻⁶ cm/s	0.63
C[C@H]1O[C@@H](O[C@H]2[C@@H](O)C[C@H](O[C@H]3[C@@H](O)C[C@H](O[C@H]4CC[C@@]5(C)[C@H](CC[C@@H]6[C@@H]5C[C@@H](O)[C@]5(C)[C@@H](C7=CC(=O)OC7)CC[C@]65O)C4)O[C@@H]3C)O[C@@H]2C)C[C@H](O)[C@@H]1O [Digoxin]	×10⁻⁶ cm/s	0.25

Data provenance is patent US20230257374A1.
